Source listed as ChEMBL document CHEMBL1146201.

# System: Plasmodium falciparum
# Test: Growth inhibition after 72 hrs of Plasmodium falciparum D6 by SYBR green I assay
# Assay type: functional, organism-based
# Settings: D6, 72 h
Where a name gives a salt, the structure may show the parent alone.
Measurement kind: IC50

C=CC1CN2CC[C@H]1C[C@H]2[C@H](O)c1ccnc2ccc(OC)cc12 (single isomer, unassigned) [QUININE HYDROCHLORIDE] = 6.6 nM

Query compound follows.
[in] Recorded IC50 of O[C@@H](c1cc(C(F)(F)F)nc2c(C(F)(F)F)cccc12)[C@H]1CCCCN1 [MEFLOQUINE HYDROCHLORIDE] , please.
[out] 6.4 nM
